Reference source: paper PMC10539501

- Assay Text: Octanol-water distribution coefficient (logD7.4)
- Experimental Setup: octanol/water, pH 7.4
Readout Name: logD

- Compound: "C[C@@H]1NC(=O)[C@H](C)NC(=S)[C@H](C)NC(=O)[C@H](C)NC(=O)[C@@H](C)NC1=O"
  Readout Name: "logD"
  Val: -0.19
- Compound: "C[C@@H]1NC(=O)[C@H](C)NC(=O)[C@H](C)NC(=S)[C@H](C)NC(=O)[C@@H](C)NC(=O)[C@H](C)NC1=O"
  Readout Name: "logD"
  Val: -0.7
- Compound: "C[C@@H]1NC(=O)[C@H](C)NC(=O)[C@H](C)NC(=O)[C@@H](C)NC(=O)[C@H](C)NC1=O [compound 8, cyclo(-D-Ala-L-Ala4-)]"
  Readout Name: "logD"
  Val: -1.46
- Compound: "C[C@@H]1NC(=O)[C@H](C)NC(=S)[C@H](C)NC(=O)[C@@H](C)NC(=O)[C@H](C)NC1=O"
  Readout Name: "logD"
  Val: -0.14

###

- Assay Text: HDX of amide protons by NMR in DMSO-d6:D2O (8:2)
- Experimental Setup: HDX by NMR, 20% D2O in DMSO-d6
Starred links: 1 amine or outer side, 2 acyl side, 3 side chain; linkers in the order of their positions; H or OH if unused. Non-standard residues stand in square brackets, D forms with d. Residues, ends and D or L forms follow the SMILES beside them. X1 = CC(C)C[C@H](NC(=S)[C@H](Cc1ccc(O)cc1)N[*:1])C(=O)[*:2]; X2 = CC(C)C[C@H](NC(=S)[C@@H](CC(C)C)N[*:1])C(=O)[*:2]; X3 = CC(C)C[C@H](N[*:1])C(=S)N[C@H](CC(C)C)C(=O)[*:2]
Readout Name: Half-life of Leu3 amide proton (HDX) (h)

- Compound: "CC(C)C[C@@H]1NC(=O)[C@@H](CC(C)C)NC(=O)[C@H](CC(C)C)NC(=S)[C@H](Cc2ccc(O)cc2)NC(=O)[C@H]2CCCN2C(=O)[C@H](CC(C)C)NC1=O [10e] (cyclo(LL[dP][X1][dL]))"
  Val: 3.18
- Compound: "CC(C)C[C@@H]1NC(=O)[C@H](Cc2ccc(O)cc2)NC(=O)[C@H]2CCCN2C(=O)[C@H](CC(C)C)NC(=O)[C@H](CC(C)C)NC(=S)[C@@H](CC(C)C)NC1=O [10a] (cyclo(L[dP]YL[X2]))"
  Val: 12
- Compound: "CC(C)C[C@@H]1NC(=O)[C@@H](CC(C)C)NC(=S)[C@H](CC(C)C)NC(=O)[C@H](Cc2ccc(O)cc2)NC(=O)[C@H]2CCCN2C(=O)[C@H](CC(C)C)NC1=O [10f] (cyclo(LL[dP]Y[X3]))"
  Val: 13.2
- Compound: "CC(C)C[C@@H]1NC(=O)[C@H](Cc2ccc(O)cc2)NC(=O)[C@H]2CCCN2C(=O)[C@H](CC(C)C)NC(=O)[C@H](CC(C)C)NC(=O)[C@@H](CC(C)C)NC1=O [compound 10, cyclo(-D-Leu^1-Leu-Leu-D-Pro-Tyr-Leu^6-)] (cyclo(LL[dP]YL[dL]))"
  Val: 3.28

###

- Assay Text: in vitro
- Experimental Setup: human, microsomes
Starred links: 1 amine or outer side, 2 acyl side, 3 side chain; linkers in the order of their positions; H or OH if unused. Non-standard residues stand in square brackets, D forms with d. Residues, ends and D or L forms follow the SMILES beside them. X2 = CC(C)C[C@H](NC(=S)[C@@H](CC(C)C)N[*:1])C(=O)[*:2]; NMeY = CN[C@@H](Cc1ccc(O)cc1)C(=O)O

- Compound: "CC(C)C[C@@H]1NC(=O)[C@H](Cc2ccc(O)cc2)NC(=O)[C@H]2CCCN2C(=O)[C@H](CC(C)C)NC(=O)[C@H](CC(C)C)NC(=S)[C@@H](CC(C)C)NC1=O [10a] (cyclo(L[dP]YL[X2]))"
  remaining at 0.75 h: "52%"
- Compound: "CC(C)C[C@@H]1NC(=O)[C@@H](CC(C)C)NC(=O)[C@H](CC(C)C)NC(=O)[C@H](Cc2ccc(O)cc2)N(C)C(=O)[C@H]2CCCN2C(=O)[C@H](CC(C)C)NC1=O [10j] (cyclo(LL[dP][NMeY]L[dL]))"
  remaining at 0.75 h: "35%"

###

- Assay Text: in vitro
- Experimental Setup: both, human, plasma
Starred links: 1 amine or outer side, 2 acyl side, 3 side chain; linkers in the order of their positions; H or OH if unused. Non-standard residues stand in square brackets, D forms with d. Residues, ends and D or L forms follow the SMILES beside them. X2 = CC(C)C[C@H](NC(=S)[C@@H](CC(C)C)N[*:1])C(=O)[*:2]; NMeL = CN[C@@H](CC(C)C)C(=O)O
Readout Name: fraction unbound

- Compound: "CC(C)C[C@@H]1NC(=O)[C@H](Cc2ccc(O)cc2)NC(=O)[C@H]2CCCN2C(=O)[C@H](CC(C)C)NC(=O)[C@H](CC(C)C)NC(=S)[C@@H](CC(C)C)NC1=O [10a] (cyclo(L[dP]YL[X2]))"
  Readout Name: "fraction unbound"
  Val: 0.28
- Compound: "CC(C)C[C@@H]1NC(=O)[C@H](Cc2ccc(O)cc2)NC(=O)[C@H]2CCCN2C(=O)[C@H](CC(C)C)N(C)C(=O)[C@H](CC(C)C)NC(=O)[C@@H](CC(C)C)NC1=O [10i] (cyclo(L[NMeL][dP]YL[dL]))"
  Readout Name: "fraction unbound"
  Val: 0.38
- Compound: "C[C@@H](O)[C@@H]1NC(=O)[C@H](CCCCN)NC(=O)[C@@H](Cc2c[nH]c3ccccc23)NC(=O)[C@H](Cc2ccccc2)NC(=O)[C@@H]2CCCN2C(=O)[C@H](Cc2ccccc2)NC1=O [compound 13, cyclo(-D-Trp^1-Lys-Thr-Phe-Pro-Phe^6-)] (cyclo(PF[dW]KTF))"
  Readout Name: "fraction unbound"
  Val: 0.24

###

- Assay Text: in vitro
- Experimental Setup: pig, simulated intestinal fluid
Starred links: 1 amine or outer side, 2 acyl side, 3 side chain; linkers in the order of their positions; H or OH if unused. Non-standard residues stand in square brackets, D forms with d. Residues, ends and D or L forms follow the SMILES beside them. X1 = CC(C)C[C@H](NC(=S)[C@H](Cc1ccc(O)cc1)N[*:1])C(=O)[*:2]; X3 = CC(C)C[C@H](N[*:1])C(=S)N[C@H](CC(C)C)C(=O)[*:2]; X4 = CC(C)C[C@H](N[*:1])C(=S)N1CCC[C@@H]1C(=O)[*:2]
The reader will find reported remaining at 1 h values listed item by item below.
Readout Name: remaining at 1 h (%)

- Compound: "CC(C)C[C@@H]1NC(=O)[C@@H](CC(C)C)NC(=S)[C@H](CC(C)C)NC(=O)[C@H](Cc2ccc(O)cc2)NC(=O)[C@H]2CCCN2C(=O)[C@H](CC(C)C)NC1=O [10f] (cyclo(LL[dP]Y[X3]))"
  Readout Name: "remaining at 1 h"
  Val: 56.5
- Compound: "CC(C)C[C@@H]1NC(=O)[C@@H](CC(C)C)NC(=O)[C@H](CC(C)C)NC(=S)[C@H](Cc2ccc(O)cc2)NC(=O)[C@H]2CCCN2C(=O)[C@H](CC(C)C)NC1=O [10e] (cyclo(LL[dP][X1][dL]))"
  Readout Name: "remaining at 1 h"
  Val: 62.8
- Compound: "CC(C)C[C@@H]1NC(=O)[C@H](Cc2ccc(O)cc2)NC(=O)[C@H]2CCCN2C(=S)[C@H](CC(C)C)NC(=O)[C@H](CC(C)C)NC(=O)[C@@H](CC(C)C)NC1=O [10c] (cyclo(L[dL]L[X4]Y))"
  Readout Name: "remaining at 1 h"
  Val: 46.6

###

- Assay Text: in vitro
- Experimental Setup: both, human, plasma
Starred links: 1 amine or outer side, 2 acyl side, 3 side chain; linkers in the order of their positions; H or OH if unused. Non-standard residues stand in square brackets, D forms with d. Residues, ends and D or L forms follow the SMILES beside them. X3 = CC(C)C[C@H](N[*:1])C(=S)N[C@H](CC(C)C)C(=O)[*:2]; X5 = CC(C)C[C@H](NC(=S)[C@H](CC(C)C)N[*:1])C(=O)[*:2]; NMeY = CN[C@@H](Cc1ccc(O)cc1)C(=O)O; NMeL = CN[C@@H](CC(C)C)C(=O)O

- Compound: "CC(C)C[C@@H]1NC(=O)[C@H](Cc2ccc(O)cc2)NC(=O)[C@H]2CCCN2C(=O)[C@H](CC(C)C)NC(=O)[C@H](CC(C)C)N(C)C(=O)[C@@H](CC(C)C)NC1=O [10h] (cyclo(L[dL][NMeL]L[dP]Y))"
  remaining at 72 h (%): 3.27
- Compound: "CC(C)C[C@@H]1NC(=O)[C@H](Cc2ccc(O)cc2)NC(=O)[C@H]2CCCN2C(=O)[C@H](CC(C)C)NC(=S)[C@H](CC(C)C)NC(=O)[C@@H](CC(C)C)NC1=O [10b] (cyclo(L[dL][X5][dP]Y))"
  remaining at 72 h (%): 7
- Compound: "CC(C)C[C@@H]1NC(=O)[C@@H](CC(C)C)NC(=O)[C@H](CC(C)C)NC(=O)[C@H](Cc2ccc(O)cc2)N(C)C(=O)[C@H]2CCCN2C(=O)[C@H](CC(C)C)NC1=O [10j] (cyclo(LL[dP][NMeY]L[dL]))"
  remaining at 72 h (%): 4
- Compound: "CC(C)C[C@@H]1NC(=O)[C@@H](CC(C)C)NC(=S)[C@H](CC(C)C)NC(=O)[C@H](Cc2ccc(O)cc2)NC(=O)[C@H]2CCCN2C(=O)[C@H](CC(C)C)NC1=O [10f] (cyclo(LL[dP]Y[X3]))"
  remaining at 72 h (%): 21
